Listing of recorded pIC50 by entry.
target: human orexin-1 receptor (Homo sapiens, UniProt O43613); construct: expressed in transfected cells; host or cells: Chinese hamster ovary (CHO) cells, G418 selection; assay: FLIPR calcium assay, antagonism of orexin-A in CHO cells expressing the human orexin-1 receptor; format: cell-based; conditions: measured with FLIPR Tetra (marked *); 3 nM orexin-A; CHO cells; read-out: OX1 IC50
In plain terms, pIC50 is the concentration in mol/L turned into minus its base-10 logarithm.

// field: pIC50; key: `COc1nc(C(=O)N2[C@@H]3CC[C@@H](C3)[C@H]2CNC(=O)c2cccc3ncsc23)c(-c2cccc(Cl)c2)s1` ; value = 7.10

The recorded pIC50 for `Cc1nc(C(=O)N2[C@@H]3CC[C@@H](C3)[C@H]2CNc2ncc(Br)cn2)c(-c2ccccc2)s1` is 6.31

pIC50 measured on `O=C(NC[C@H]1[C@@H]2CC[C@@H](C2)N1C(=O)c1nc(N2CCCC2)sc1-c1ccccc1F)c1cccc2ncsc12` = 7.64

Entry `O=C(NC[C@@H]1[C@H]2CC[C@H](C2)N1C(=O)c1nccnc1-c1ccc2cc[nH]c2c1)c1cccc2ncsc12` ; pIC50 = 6.15

Reported pIC50 ( `CN(C)c1nc(C(=O)N2[C@@H]3CC[C@@H](C3)[C@H]2CNC(=O)c2nsc3ccccc23)c(-c2cccc(F)c2)s1` ) = 7.19

Lookup result for `Cc1nc2sccn2c1C(=O)NC[C@@H]1[C@H]2CC[C@H](C2)N1C(=O)c1nc(C2CC2)sc1-c1ccccc1` ; measured pIC50: 6.86

Briefly, pIC50 measured for `Cc1nc2sccn2c1C(=O)NC[C@@H]1[C@H]2CC[C@H](C2)N1C(=O)c1ncsc1-c1ccc(F)cc1` : 6.56

What the record says about `CN(C)c1nc(C(=O)N2[C@@H]3CC[C@@H](C3)[C@H]2CNC(=O)c2nn(C)c3ccccc23)c(-c2ccccc2)s1` : pIC50 is 6.51

Briefly, pIC50 measured for `CCN(C)c1nc(C(=O)N2[C@H]3CC[C@H](C3)[C@@H]2CNC(=O)c2cccc3ncsc23)c(-c2ccc(F)cc2)s1` : 6.93

Lab note: measured pIC50 of `O=C(NC[C@@H]1[C@H]2CC[C@H](C2)N1C(=O)c1sccc1-c1ccc2c(c1)OCO2)c1cccc2ncsc12` was 5.90

The reported value for `Cc1nc(C(=O)N2[C@@H]3CC[C@@H](C3)[C@H]2CNC(=O)c2cccc3ncsc23)c(-c2cccc(OC(F)(F)F)c2)o1` in terms of pIC50 is 6.52

----------
biological target: human orexin-2 receptor (Homo sapiens); construct: expressed in transfected cells; host or cells: Chinese hamster ovary (CHO) cells, G418 selection; assay: FLIPR calcium assay, antagonism of orexin-A in CHO cells expressing the human orexin-2 receptor; type: cell-based; settings: measured with FLIPR 2; 3 nM orexin-A; CHO cells; read-out: OX2 IC50
Sequence (O43614 whole entry): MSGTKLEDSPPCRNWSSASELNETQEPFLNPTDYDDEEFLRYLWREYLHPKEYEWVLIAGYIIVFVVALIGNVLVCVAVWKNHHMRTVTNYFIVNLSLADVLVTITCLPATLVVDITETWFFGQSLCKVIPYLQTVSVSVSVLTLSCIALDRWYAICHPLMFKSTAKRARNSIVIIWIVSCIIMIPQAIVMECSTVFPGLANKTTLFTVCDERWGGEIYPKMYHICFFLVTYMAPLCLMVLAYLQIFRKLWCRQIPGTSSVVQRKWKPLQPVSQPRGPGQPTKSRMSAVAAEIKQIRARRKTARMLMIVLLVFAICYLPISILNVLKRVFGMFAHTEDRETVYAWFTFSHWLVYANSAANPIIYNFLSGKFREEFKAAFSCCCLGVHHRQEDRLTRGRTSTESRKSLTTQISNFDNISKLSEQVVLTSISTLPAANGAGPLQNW
readout-kind: pIC50
// pIC50 is dimensionless: -log10 of concentration (M)

CCn1nc(C)cc1C(=O)NC[C@@H]1[C@H]2CC[C@H](C2)N1C(=O)c1ccccc1-c1ccccc1 [Example 40] | 6.36
Nc1nc(C(=O)N2[C@@H]3CC[C@@H](C3)[C@H]2CNC(=O)c2cccc3c2OCCO3)c(-c2cccc(F)c2)s1 [Example 5] | 7.54

Form field pIC50 for item Cc1nc(C(=O)N2[C@@H]3CC[C@@H](C3)[C@H]2CNC(=O)c2cccc3cccnc23)c(-c2cccc(Cl)c2)s1 [Example 1] on human orexin-2 receptor (Homo sapiens): 6.21

The reported human orexin-2 receptor (Homo sapiens) pIC50 of Cc1ncc(C(=O)N2[C@@H]3CC[C@@H](C3)[C@H]2CNC(=O)c2cccc3occc23)c(-c2ccccc2)n1 [Example 11] is 5.67

----------
Entries and their pIC50 values follow.
Biological target: human orexin-1 receptor (Homo sapiens)
Construct: expressed in transfected cells; host or cells: Chinese hamster ovary (CHO) cells, G418 selection
Sequence (O43613 1-425): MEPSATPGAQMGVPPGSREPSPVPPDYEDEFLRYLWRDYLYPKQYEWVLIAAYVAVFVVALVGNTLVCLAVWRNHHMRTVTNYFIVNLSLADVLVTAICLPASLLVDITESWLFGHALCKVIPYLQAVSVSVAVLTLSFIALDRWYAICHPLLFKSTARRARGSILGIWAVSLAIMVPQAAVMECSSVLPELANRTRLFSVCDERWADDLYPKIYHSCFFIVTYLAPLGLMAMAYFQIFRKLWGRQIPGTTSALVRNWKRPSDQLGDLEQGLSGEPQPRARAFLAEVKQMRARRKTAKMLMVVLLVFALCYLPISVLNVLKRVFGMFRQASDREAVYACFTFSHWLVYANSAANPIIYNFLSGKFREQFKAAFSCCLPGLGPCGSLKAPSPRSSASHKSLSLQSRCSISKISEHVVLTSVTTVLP
Experiment: FLIPR calcium assay, antagonism of orexin-A in CHO cells expressing the human orexin-1 receptor
Assay type: cell-based
Settings: measured with FLIPR 2; 3 nM orexin-A; CHO cells; read-out: OX1 IC50
// returns pIC50 (minus log10 of molar concentration), number only

Nc1nc(C(=O)N2[C@@H]3CC[C@@H](C3)[C@H]2CNC(=O)c2cccc3c2OCCO3)c(-c2cccc(F)c2)s1 [Example 5] | 6.83

Param item: Cc1ncc(C(=O)N2[C@@H]3CC[C@@H](C3)[C@H]2CNC(=O)c2cccc3occc23)c(-c2ccccc2)n1 [Example 11] ; param system: human orexin-1 receptor (Homo sapiens); output pIC50: 7.12

Assay human orexin-1 receptor (Homo sapiens), sample Cc1nc(C(=O)N2[C@@H]3CC[C@@H](C3)[C@H]2CNC(=O)c2cccc3cccnc23)c(-c2cccc(Cl)c2)s1 [Example 1] , pIC50 read: 7.23

----------
target: human orexin-2 receptor (Homo sapiens); construct: expressed in transfected cells; host or cells: Chinese hamster ovary (CHO) cells, G418 selection; test: FLIPR calcium assay, antagonism of orexin-A in CHO cells expressing the human orexin-2 receptor; format: cell-based; settings: measured with FLIPR Tetra (marked *); 3 nM orexin-A; CHO cells; read-out: OX2 IC50
Could you please mark T for values of IC50 below 40 nM and F for values at or above it?

Some solved entries appear below for comparison.
O=C(NC[C@@H]1[C@H]2CC[C@H](C2)N1C(=O)c1sccc1-c1ccc2c(c1)OCO2)c1cccc2ncsc12 [Example 94] | F
O=C(NC[C@@H]1[C@H]2CC[C@H](C2)N1C(=O)c1nccnc1-c1ccc2cc[nH]c2c1)c1cccc2ncsc12 [Example 109] | T
Cc1nc2sccn2c1C(=O)NC[C@@H]1[C@H]2CC[C@H](C2)N1C(=O)c1nc(C2CC2)sc1-c1ccccc1 [Example 31] | F
Cc1nc(C(=O)N2[C@@H]3CC[C@@H](C3)[C@H]2CNc2ncc(Br)cn2)c(-c2ccccc2)s1 [Example 46] | F
O=C(NC[C@H]1[C@@H]2CC[C@@H](C2)N1C(=O)c1nc(N2CCCC2)sc1-c1ccccc1F)c1cccc2ncsc12 [Example 110] | T

Please state whether IC50 is below 40 nM for CN(C)c1nc(C(=O)N2[C@@H]3CC[C@@H](C3)[C@H]2CNC(=O)c2nsc3ccccc23)c(-c2cccc(F)c2)s1 [Example 105] F

Would you kindly verify if IC50 of Cc1nc2sccn2c1C(=O)NC[C@@H]1[C@H]2CC[C@H](C2)N1C(=O)c1ncsc1-c1ccc(F)cc1 [Example 35] is strictly less than 40 nM? F

Given the entry Cc1nc(C(=O)N2[C@@H]3CC[C@@H](C3)[C@H]2CNC(=O)c2cccc3ncsc23)c(-c2cccc(OC(F)(F)F)c2)o1 [Example 104] , would its reported IC50 be below 40 nM? T

Decide: IC50 of COc1nc(C(=O)N2[C@@H]3CC[C@@H](C3)[C@H]2CNC(=O)c2cccc3ncsc23)c(-c2cccc(Cl)c2)s1 [Example 80] strictly below 40 nM? T

# check: IC50 < 40 nM for CN(C)c1nc(C(=O)N2[C@@H]3CC[C@@H](C3)[C@H]2CNC(=O)c2nn(C)c3ccccc23)c(-c2ccccc2)s1 [Example 63] F

Identify whether the compound CCN(C)c1nc(C(=O)N2[C@H]3CC[C@H](C3)[C@@H]2CNC(=O)c2cccc3ncsc23)c(-c2ccc(F)cc2)s1 [Example 118] records IC50 below 40 nM. T

----------
molecular target: human orexin-1 receptor (Homo sapiens, UniProt O43613); construct: expressed in transfected cells; host or cells: Chinese hamster ovary (CHO) cells, G418 selection; assay: FLIPR calcium assay, antagonism of orexin-A in CHO cells expressing the human orexin-1 receptor; type: cell-based; details: measured with FLIPR Tetra (marked *); geometric mean from n = 2 values; read-out: OX1 IC50
# reported IC50; entries follow
Respond with the bare value in nM.

COc1cccc(-c2sc(N(C)C)nc2C(=O)N2[C@@H]3CC[C@@H](C3)[C@H]2CNC(=O)c2cccc3ncsc23)c1 | 12

Pending compound:
The compound `Cc1nc2c(C(=O)NC[C@@H]3[C@H]4CC[C@H](C4)N3C(=O)c3nc(N(C)C)sc3-c3cccc(F)c3)cccc2o1` showed IC50 equal to 64
